- experimental-system: human IL-23R (Homo sapiens, UniProt Q5VWK5)
- Sequence (Q5VWK5 22-629): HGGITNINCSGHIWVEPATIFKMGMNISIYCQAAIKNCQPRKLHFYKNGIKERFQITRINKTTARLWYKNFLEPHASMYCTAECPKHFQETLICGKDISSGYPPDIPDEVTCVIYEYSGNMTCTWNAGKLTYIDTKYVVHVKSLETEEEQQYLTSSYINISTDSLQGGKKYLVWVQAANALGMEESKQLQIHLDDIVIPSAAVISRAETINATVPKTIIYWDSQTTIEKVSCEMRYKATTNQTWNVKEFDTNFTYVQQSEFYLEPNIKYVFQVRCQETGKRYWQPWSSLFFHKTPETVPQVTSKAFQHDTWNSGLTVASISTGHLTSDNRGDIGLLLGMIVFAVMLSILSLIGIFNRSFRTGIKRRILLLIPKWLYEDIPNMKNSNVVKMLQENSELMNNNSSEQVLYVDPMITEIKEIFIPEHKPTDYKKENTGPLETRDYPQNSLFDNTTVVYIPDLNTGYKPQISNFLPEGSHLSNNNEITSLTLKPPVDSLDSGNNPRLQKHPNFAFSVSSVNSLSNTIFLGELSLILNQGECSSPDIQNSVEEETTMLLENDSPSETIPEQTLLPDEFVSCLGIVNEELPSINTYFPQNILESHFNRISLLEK
- protocol-details: biochemical
*1 amine or outer side, *2 acyl side, *3 side chain or, on linkers, in order; H or OH if unused. Where a SMILES comes first, the peptide text is derived from it. Bridges are numbered along the chain shown (N, C = ends). [ ]: non-standard residue; d: D form. The star is where a group is joined. 2Nal = N[C@@H](Cc1ccc2ccccc2c1)C(=O)O; AEF = NCCOc1ccc(C[C@H](N)C(=O)O)cc1; X1 = O=C(Cc1ccc(CN[*:1])cc1)[*:2]; 3Pal = N[C@@H](Cc1cccnc1)C(=O)O; αMeL = CC(C)C[C@](C)(N)C(=O)O; Pyrrolidide = C1CCN(*)C1; Dab = NCC[C@H](N)C(=O)O; Sar = CNCC(=O)O

compound	experimental-system	% displacement (hIL-23R binding)
CC(C)C[C@]1(C)NC(=O)[C@H](Cc2ccc3ccccc3c2)NC(=O)[C@H](Cc2ccc(OCCN)cc2)NC(=O)[C@@H]2CCNC(=O)CC[C@H](NC(=O)[C@H](CO)NC(=O)Cc3ccc(cc3)CNC(=O)CC[C@@H](C(=O)N[C@@H](CCN)C(=O)N[C@@H](Cc3cccnc3)C(=O)N(C)CC(N)=O)NC1=O)C(=O)N[C@@H](Cc1c[nH]c3ccccc13)C(=O)N[C@@H](CCC(N)=O)C(=O)N2 [Compound 9] ([X1]SEWQ[Dab][AEF][2Nal][αMeL]E[Dab][3Pal][Sar]-NH2; lactam 3-6, N-10)	human IL-23R (Homo sapiens, UniProt Q5VWK5)	100%
CC(C)C[C@]1(C)NC(=O)[C@H](Cc2ccc3ccccc3c2)NC(=O)[C@H](Cc2ccc(OCCN)cc2)NC(=O)[C@@H]2CCNC(=O)CC[C@H](NC(=O)[C@H](CO)NC(=O)Cc3ccc(cc3)CNC(=O)CC[C@@H](C(=O)N[C@@H](CCN)C(N)=O)NC1=O)C(=O)N[C@@H](Cc1c[nH]c3ccccc13)C(=O)N[C@@H](CCC(=O)N1CCCC1)C(=O)N2 [Ref 146, reference compound] ([X1]SEWE(Pyrrolidide)[Dab][AEF][2Nal][αMeL]E[Dab]-NH2; lactam 3-6, N-10)	human IL-23R (Homo sapiens, UniProt Q5VWK5)	105%
CC(C)C[C@]1(C)NC(=O)[C@H](Cc2ccc3ccccc3c2)NC(=O)[C@H](Cc2ccc(OCCN)cc2)NC(=O)[C@@H]2CCNC(=O)CC[C@H](NC(=O)[C@H](CO)NC(=O)Cc3ccc(cc3)CNC(=O)CC[C@@H](C(=O)N[C@@H](CCN)C(=O)N(C)[C@@H](Cc3cccnc3)C(N)=O)NC1=O)C(=O)N[C@@H](Cc1c[nH]c3ccccc13)C(=O)N[C@@H](CCC(N)=O)C(=O)N2	human IL-23R (Homo sapiens, UniProt Q5VWK5)	111%
CNC(=O)[C@H](Cc1cccnc1)NC(=O)[C@H](CCN)NC(=O)[C@@H]1CCC(=O)NCc2ccc(cc2)CC(=O)N[C@@H](CO)C(=O)N[C@H]2CCC(=O)NCC[C@H](NC(=O)[C@H](Cc3ccccc3)NC(=O)[C@H](Cc3c[nH]c4ccccc34)NC2=O)C(=O)N[C@@H](Cc2ccc(OCCN)cc2)C(=O)N[C@@H](Cc2ccc3ccccc3c2)C(=O)N[C@@](C)(CC(C)C)C(=O)N1 [Compound 23] ([X1]SEWF[Dab][AEF][2Nal][αMeL]E[Dab][3Pal]-NHMe; lactam 3-6, N-10)	human IL-23R (Homo sapiens, UniProt Q5VWK5)	97%

From: patent EP4471049A1
